Overview of reported inhibition at 10 µM across a group of compounds:
- Study System: COX-1 (Ovis aries)
- Construct: purchased BioVision incorporated USA K548–100
- Sequence (P05979 25-600): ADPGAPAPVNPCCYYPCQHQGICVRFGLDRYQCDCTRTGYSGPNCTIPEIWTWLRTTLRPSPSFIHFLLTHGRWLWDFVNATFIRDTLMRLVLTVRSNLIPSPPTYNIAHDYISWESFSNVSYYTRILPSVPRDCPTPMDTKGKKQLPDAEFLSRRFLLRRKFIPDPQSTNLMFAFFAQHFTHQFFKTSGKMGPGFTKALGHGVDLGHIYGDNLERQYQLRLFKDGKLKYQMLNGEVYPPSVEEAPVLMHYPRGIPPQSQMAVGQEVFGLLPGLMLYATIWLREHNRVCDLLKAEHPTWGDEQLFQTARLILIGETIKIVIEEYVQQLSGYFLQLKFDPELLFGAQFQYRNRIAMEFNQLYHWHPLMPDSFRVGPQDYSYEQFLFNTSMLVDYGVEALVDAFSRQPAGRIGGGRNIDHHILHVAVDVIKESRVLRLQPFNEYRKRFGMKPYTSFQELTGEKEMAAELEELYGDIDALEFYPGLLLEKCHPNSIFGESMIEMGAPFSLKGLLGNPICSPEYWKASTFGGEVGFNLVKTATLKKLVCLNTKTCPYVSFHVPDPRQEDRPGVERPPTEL
- Procedure Text: biochemical
- Study Conditions: 3 replicates, read-out: % Inhibition of COX-1 ± SEM
Write the answer as a number in %, unit excluded.

Compound: CCOP(=O)(OCC)N1C/C(=C\c2ccc(Br)cc2)C(=O)C2(C1)C(c1ccc(Br)cc1)CN(C)C21C(=O)Nc2ccccc21 (stereo not drawn) [Compound 17l]
Numeric Value: 61.6

Tell me reported inhibition at 10 µM for CCOP(=O)(OCC)N1C/C(=C\c2ccc(C)cc2)C(=O)C2(C1)C(c1ccc(C)cc1)CN(C)C21C(=O)Nc2ccc(Cl)cc21 (stereo not drawn) [Compound 17o] , tested with COX-1 (Ovis aries).
61.7

Tell me reported inhibition at 10 µM for CCOP(=O)(OCC)N1C/C(=C\c2ccc(Cl)cc2)C(=O)C2(C1)C(c1ccc(Cl)cc1)CN(C)C21C(=O)Nc2ccc(F)cc21 (stereo not drawn) [Compound 17i] , tested with COX-1 (Ovis aries).
46.2

Tell me reported inhibition at 10 µM for CCOP(=O)(OCC)N1C/C(=C\c2cccs2)C(=O)C2(C1)C(c1cccs1)CN(C)C21C(=O)Nc2ccc(C)cc21 (stereo not drawn) [Compound 17t] , tested with COX-1 (Ovis aries).
49.2

Tell me reported inhibition at 10 µM for CCOP(=O)(OCC)N1C/C(=C\c2ccc(F)cc2)C(=O)C2(C1)C(c1ccc(F)cc1)CN(C)C21C(=O)Nc2ccccc21 (stereo not drawn) [Compound 17e] , tested with COX-1 (Ovis aries).
55

Tell me reported inhibition at 10 µM for CCOP(=O)(OCC)N1C/C(=C\c2ccccc2)C(=O)C2(C1)C(c1ccccc1)CN(C)C21C(=O)Nc2ccc(C)cc21 (stereo not drawn) [Compound 17d] , tested with COX-1 (Ovis aries).
51.8

---

- System: A549 (lung) cancer cell line
- Procedure Text: 2D-monolayer antiproliferation (MTT) against A549
- Assay type: cell-based, human
- Study Conditions: IC50 of RPE1 normal cell/IC50 of A549
Property Name: SI (selectivity index) A549
A bare number is all that is needed in reply.

Consider the reported SI (selectivity index) A549 for these molecules:
Molecule: CCOP(=O)(OCC)N1C/C(=C\c2ccccc2)C(=O)C2(C1)C(c1ccccc1)CN(C)C21C(=O)Nc2ccc(F)cc21 (stereo not drawn) [Compound 17b]
SI (selectivity index) A549: 2.1
//
Molecule: CCOP(=O)(OCC)N1C/C(=C\c2cccs2)C(=O)C2(C1)C(c1cccs1)CN(C)C21C(=O)Nc2ccc(C)cc21 (stereo not drawn) [Compound 17t]
SI (selectivity index) A549: 1.8
//
Molecule: CCOP(=O)(OCC)N1C/C(=C\c2ccc(F)cc2)C(=O)C2(C1)C(c1ccc(F)cc1)CN(C)C21C(=O)Nc2ccc(C)cc21 (stereo not drawn) [Compound 17g]
SI (selectivity index) A549: 2.3
//
Molecule: CCOP(=O)(OCC)N1C/C(=C\c2ccccc2)C(=O)C2(C1)C(c1ccccc1)CN(C)C21C(=O)Nc2ccccc21 (stereo not drawn) [Compound 17a]
SI (selectivity index) A549: 1.2
//
Molecule: CCOP(=O)(OCC)N1C/C(=C\c2ccccc2)C(=O)C2(C1)C(c1ccccc1)CN(C)C21C(=O)Nc2ccc(C)cc21 (stereo not drawn) [Compound 17d]
SI (selectivity index) A549: 1.2
//
Molecule: CCOP(=O)(OCC)N1C/C(=C\c2ccc(C)cc2)C(=O)C2(C1)C(c1ccc(C)cc1)CN(C)C21C(=O)Nc2ccccc21 (stereo not drawn) [Compound 17m]
SI (selectivity index) A549: 1.2

Form field: reported SI (selectivity index) A549 of CCOP(=O)(OCC)N1C/C(=C\c2cccs2)C(=O)C2(C1)C(c1cccs1)CN(C)C21C(=O)Nc2ccccc21 (stereo not drawn) [Compound 17q]
1.1

Form field: reported SI (selectivity index) A549 of CCOP(=O)(OCC)N1C/C(=C\c2cccs2)C(=O)C2(C1)C(c1cccs1)CN(C)C21C(=O)Nc2ccc(F)cc21 (stereo not drawn) [Compound 17r]
1.2

Form field: reported SI (selectivity index) A549 of CCOP(=O)(OCC)N1C/C(=C\c2ccc(F)cc2)C(=O)C2(C1)C(c1ccc(F)cc1)CN(C)C21C(=O)Nc2ccccc21 (stereo not drawn) [Compound 17e]
2.1

Form field: reported SI (selectivity index) A549 of CCOP(=O)(OCC)N1C/C(=C\c2ccc(OC)cc2)C(=O)C2(C1)C(c1ccc(OC)cc1)CN(C)C21C(=O)Nc2ccccc21 (stereo not drawn) [Compound 17p]
1.1

Form field: reported SI (selectivity index) A549 of CCOP(=O)(OCC)N1C/C(=C\c2ccc(Cl)cc2)C(=O)C2(C1)C(c1ccc(Cl)cc1)CN(C)C21C(=O)Nc2ccccc21 (stereo not drawn) [Compound 17h]
2.0

Form field: reported SI (selectivity index) A549 of CCOP(=O)(OCC)N1C/C(=C\c2ccc(Br)cc2)C(=O)C2(C1)C(c1ccc(Br)cc1)CN(C)C21C(=O)Nc2ccccc21 (stereo not drawn) [Compound 17l]
1.1

Form field: reported SI (selectivity index) A549 of CCOP(=O)(OCC)N1C/C(=C\c2ccc(Cl)cc2)C(=O)C2(C1)C(c1ccc(Cl)cc1)CN(C)C21C(=O)Nc2ccc(C)cc21 (stereo not drawn) [Compound 17k]
1.3

---

- Study System: VEGFR-2 (Homo sapiens, UniProt P35968)
- Construct: endogenous in cells; host or cells: HCT116, PaCa2, MCF7 (human cancer cell lines, ATCC origin)
- Sequence (P35968 20-1356): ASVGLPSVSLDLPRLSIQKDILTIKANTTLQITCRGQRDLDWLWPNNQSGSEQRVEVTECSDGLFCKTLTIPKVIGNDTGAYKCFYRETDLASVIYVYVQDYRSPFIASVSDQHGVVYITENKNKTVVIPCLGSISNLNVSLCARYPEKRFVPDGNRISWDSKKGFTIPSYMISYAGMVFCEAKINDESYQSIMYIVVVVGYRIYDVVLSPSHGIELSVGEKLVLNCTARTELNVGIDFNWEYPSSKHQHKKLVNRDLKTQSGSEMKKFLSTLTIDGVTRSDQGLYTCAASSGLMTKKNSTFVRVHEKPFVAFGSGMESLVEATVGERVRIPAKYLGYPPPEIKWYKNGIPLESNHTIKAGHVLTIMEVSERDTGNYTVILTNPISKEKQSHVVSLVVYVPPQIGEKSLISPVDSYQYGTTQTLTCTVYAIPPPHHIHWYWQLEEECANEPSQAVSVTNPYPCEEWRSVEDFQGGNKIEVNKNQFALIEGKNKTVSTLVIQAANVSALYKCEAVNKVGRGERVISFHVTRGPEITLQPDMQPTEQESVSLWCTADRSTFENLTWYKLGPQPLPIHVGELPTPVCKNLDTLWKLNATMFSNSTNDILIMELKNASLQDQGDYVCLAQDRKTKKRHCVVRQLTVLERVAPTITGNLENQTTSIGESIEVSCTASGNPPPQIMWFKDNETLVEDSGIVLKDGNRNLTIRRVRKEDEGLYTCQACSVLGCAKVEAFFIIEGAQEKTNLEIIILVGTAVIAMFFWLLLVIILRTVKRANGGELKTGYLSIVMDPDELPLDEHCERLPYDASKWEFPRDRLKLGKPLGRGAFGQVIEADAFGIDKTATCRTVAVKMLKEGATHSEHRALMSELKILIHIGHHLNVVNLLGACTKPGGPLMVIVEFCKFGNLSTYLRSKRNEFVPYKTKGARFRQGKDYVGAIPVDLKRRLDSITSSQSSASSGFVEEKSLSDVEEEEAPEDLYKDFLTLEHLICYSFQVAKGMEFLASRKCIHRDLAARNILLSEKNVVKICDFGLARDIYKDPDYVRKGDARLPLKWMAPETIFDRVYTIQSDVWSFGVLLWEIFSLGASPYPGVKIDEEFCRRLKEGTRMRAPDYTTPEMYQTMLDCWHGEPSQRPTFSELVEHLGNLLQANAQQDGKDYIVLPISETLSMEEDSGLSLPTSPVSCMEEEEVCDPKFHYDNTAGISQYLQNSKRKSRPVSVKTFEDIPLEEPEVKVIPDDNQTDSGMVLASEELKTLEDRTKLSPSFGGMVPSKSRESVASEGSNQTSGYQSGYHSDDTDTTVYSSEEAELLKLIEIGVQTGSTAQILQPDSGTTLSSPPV
- Procedure Text: cell-based
- Format: cell-based
- Study Conditions: at 10 μM, control 258.70 ± 2.3
Property Name: VEGFR-2 pg/mL ± SEM MCF7

Consider the reported VEGFR-2 pg/mL ± SEM MCF7 for these compounds:
Compound: CCOP(=O)(OCC)N1C/C(=C\c2cccs2)C(=O)C2(C1)C(c1cccs1)CN(C)C21C(=O)Nc2ccc(F)cc21 (centres unmarked) [Compound 17r]
Study System: VEGFR-2 (Homo sapiens, UniProt P35968)
VEGFR-2 pg/mL ± SEM MCF7: 84.30 ± 1.0 pg/mL

Compound: CCOP(=O)(OCC)N1C/C(=C\c2ccc(C)cc2)C(=O)C2(C1)C(c1ccc(C)cc1)CN(C)C21C(=O)Nc2ccccc21 (centres unmarked) [Compound 17m]
Study System: VEGFR-2 (Homo sapiens, UniProt P35968)
VEGFR-2 pg/mL ± SEM MCF7: 42.80 ± 0.4 pg/mL

Compound: CCOP(=O)(OCC)N1C/C(=C\c2ccccc2)C(=O)C2(C1)C(c1ccccc1)CN(C)C21C(=O)Nc2ccc(Cl)cc21 (centres unmarked) [Compound 17c]
Study System: VEGFR-2 (Homo sapiens, UniProt P35968)
VEGFR-2 pg/mL ± SEM MCF7: 60.40 ± 0.5 pg/mL

Compound: CCOP(=O)(OCC)N1C/C(=C\c2ccccc2)C(=O)C2(C1)C(c1ccccc1)CN(C)C21C(=O)Nc2ccc(C)cc21 (centres unmarked) [Compound 17d]
Study System: VEGFR-2 (Homo sapiens, UniProt P35968)
VEGFR-2 pg/mL ± SEM MCF7: 72.80 ± 1.2 pg/mL

Compound: CCOP(=O)(OCC)N1C/C(=C\c2ccc(Cl)cc2)C(=O)C2(C1)C(c1ccc(Cl)cc1)CN(C)C21C(=O)Nc2ccc(Cl)cc21 (centres unmarked) [Compound 17j]
Study System: VEGFR-2 (Homo sapiens, UniProt P35968)
VEGFR-2 pg/mL ± SEM MCF7: 44.80 ± 0.6 pg/mL

Now look at this entry.
Form field: reported VEGFR-2 pg/mL ± SEM MCF7 of CCOP(=O)(OCC)N1C/C(=C\c2ccccc2)C(=O)C2(C1)C(c1ccccc1)CN(C)C21C(=O)Nc2ccc(F)cc21 (centres unmarked) [Compound 17b]
77.20 ± 0.6 pg/mL

---

Overview of reported inhibition at 10 µM across a group of compounds:
- Study System: VEGFR-2 (Homo sapiens, UniProt P35968)
- Construct: endogenous in cells; host or cells: HCT116, PaCa2, MCF7 (human cancer cell lines, ATCC origin)
- Procedure Text: cell-based
- Format: cell-based
- Study Conditions: HCT-116, HCT116
Write the answer as a number in %, unit excluded.

Consider the reported inhibition at 10 µM for these compounds:
Compound: CCOP(=O)(OCC)N1C/C(=C\c2ccccc2)C(=O)C2(C1)C(c1ccccc1)CN(C)C21C(=O)Nc2ccc(C)cc21 (stereo not shown) [Compound 17d]
inhibition at 10 µM, %: 72.5
--
Compound: CCOP(=O)(OCC)N1C/C(=C\c2ccc(C)cc2)C(=O)C2(C1)C(c1ccc(C)cc1)CN(C)C21C(=O)Nc2ccccc21 (stereo not shown) [Compound 17m]
inhibition at 10 µM, %: 86
--
Compound: CCOP(=O)(OCC)N1C/C(=C\c2ccc(OC)cc2)C(=O)C2(C1)C(c1ccc(OC)cc1)CN(C)C21C(=O)Nc2ccccc21 (stereo not shown) [Compound 17p]
inhibition at 10 µM, %: 90
--
Compound: CCOP(=O)(OCC)N1C/C(=C\c2ccccc2)C(=O)C2(C1)C(c1ccccc1)CN(C)C21C(=O)Nc2ccc(F)cc21 (stereo not shown) [Compound 17b]
inhibition at 10 µM, %: 77
--
Compound: CCOP(=O)(OCC)N1C/C(=C\c2ccc(C)cc2)C(=O)C2(C1)C(c1ccc(C)cc1)CN(C)C21C(=O)Nc2ccc(Cl)cc21 (stereo not shown) [Compound 17o]
inhibition at 10 µM, %: 84.8

Form field: reported inhibition at 10 µM of CCOP(=O)(OCC)N1C/C(=C\c2ccc(F)cc2)C(=O)C2(C1)C(c1ccc(F)cc1)CN(C)C21C(=O)Nc2ccc(C)cc21 (stereo not shown) [Compound 17g]
69

Form field: reported inhibition at 10 µM of CCOP(=O)(OCC)N1C/C(=C\c2ccc(Cl)cc2)C(=O)C2(C1)C(c1ccc(Cl)cc1)CN(C)C21C(=O)Nc2ccc(C)cc21 (stereo not shown) [Compound 17k]
78.7
